Measured IC50 accompanies every entry in the list below.
- assaySystem: Metabotropic glutamate receptor 6 (Rattus norvegicus)
- Sequence (P35349 whole entry): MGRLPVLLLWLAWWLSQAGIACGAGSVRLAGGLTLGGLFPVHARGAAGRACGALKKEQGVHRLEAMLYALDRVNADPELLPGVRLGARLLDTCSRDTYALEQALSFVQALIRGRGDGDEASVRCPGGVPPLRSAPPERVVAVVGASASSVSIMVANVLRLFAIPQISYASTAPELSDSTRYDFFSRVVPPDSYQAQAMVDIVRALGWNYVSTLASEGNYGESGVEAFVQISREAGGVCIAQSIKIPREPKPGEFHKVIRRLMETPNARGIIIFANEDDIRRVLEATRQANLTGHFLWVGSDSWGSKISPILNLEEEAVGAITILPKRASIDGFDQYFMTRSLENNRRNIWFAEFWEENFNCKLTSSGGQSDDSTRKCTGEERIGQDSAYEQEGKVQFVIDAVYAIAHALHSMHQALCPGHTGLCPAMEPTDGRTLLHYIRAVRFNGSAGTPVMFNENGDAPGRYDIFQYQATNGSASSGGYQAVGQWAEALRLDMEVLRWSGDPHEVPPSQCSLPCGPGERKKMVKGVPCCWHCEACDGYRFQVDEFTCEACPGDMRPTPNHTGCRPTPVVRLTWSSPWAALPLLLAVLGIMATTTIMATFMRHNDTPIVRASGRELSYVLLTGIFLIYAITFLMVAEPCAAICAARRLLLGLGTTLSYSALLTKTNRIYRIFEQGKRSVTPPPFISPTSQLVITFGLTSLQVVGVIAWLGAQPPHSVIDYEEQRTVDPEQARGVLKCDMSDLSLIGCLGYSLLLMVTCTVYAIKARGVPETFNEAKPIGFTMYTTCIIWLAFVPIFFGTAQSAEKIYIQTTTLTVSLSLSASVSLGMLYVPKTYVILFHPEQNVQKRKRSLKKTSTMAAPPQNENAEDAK
- experimentSummary: Concentration required to inhibit metabotropic glutamate receptor 6 activity of rat expressed in CHO cells
# unit: nM | format: bare number

N[C@](CC1c2ccccc2Oc2ccccc21)(C(=O)O)[C@H]1C[C@@H]1C(=O)O; 1140

Continue with the next compound.
Exercise: Indicate its recorded IC50; the compound in question is "N[C@]1(C(=O)O)[C@H]2[C@@H](C[C@H]1OCc1ccc(Cl)c(Cl)c1)[C@]2(F)C(=O)O"
Key: 2060

* * *

- experimentSummary: Concentration of compound in plasma of rat after 6 hr of oral dose 10 mg/kg
- Assay type: ADME, organism-based
- Set-up: dose 10 mg/kg, route oral
measurementType: concentration at 6 h (ng/mL)
Report the value in ng/mL with no unit label.

Past entries and their recorded results:
N[C@]1(C(=O)O)[C@H]2[C@@H](C[C@H]1OCc1ccc(Cl)c(Cl)c1)[C@]2(F)C(=O)O; 492
N[C@]1(C(=O)O)[C@H]2[C@@H](C[C@H]1OC(c1ccccc1)c1ccccc1)[C@]2(F)C(=O)O; 23.1
N[C@]1(C(=O)O)[C@H]2[C@@H](C[C@H]1OCc1ccc3ccccc3c1)[C@]2(F)C(=O)O; 210
N[C@]1(C(=O)O)[C@H]2[C@@H](C[C@H]1OCc1ccc(Cl)cc1)[C@]2(F)C(=O)O; 98.2

Proceeding to the next compound to report its concentration at 6 h.
Exercise: Read the entry "N[C@]1(C(=O)O)[C@H]2[C@@H](C[C@H]1OCc1ccc(F)c(F)c1)[C@]2(F)C(=O)O" and write its reported concentration at 6 h.
Key: 41.1

* * *

- assaySystem: Metabotropic glutamate receptor 6 (Rattus norvegicus)
- experimentSummary: Effective concentration for agonistic activity towards metabotropic glutamate receptor 6 of rat expressed in CHO cells
pEC50: −log10 of the molar value.
measurementType: pEC50

N[C@]1(C(=O)O)[C@H]2[C@@H](C[C@H]1OCc1ccc(Cl)c(Cl)c1)[C@]2(F)C(=O)O; < 4.00

We now examine a further compound.
Exercise: State its pEC50: "N[C@](CC1c2ccccc2Oc2ccccc21)(C(=O)O)[C@H]1C[C@@H]1C(=O)O"
Key: < 4.00

* * *

- assaySystem: Metabotropic glutamate receptor 1 (Rattus norvegicus)
- Sequence (P23385 whole entry): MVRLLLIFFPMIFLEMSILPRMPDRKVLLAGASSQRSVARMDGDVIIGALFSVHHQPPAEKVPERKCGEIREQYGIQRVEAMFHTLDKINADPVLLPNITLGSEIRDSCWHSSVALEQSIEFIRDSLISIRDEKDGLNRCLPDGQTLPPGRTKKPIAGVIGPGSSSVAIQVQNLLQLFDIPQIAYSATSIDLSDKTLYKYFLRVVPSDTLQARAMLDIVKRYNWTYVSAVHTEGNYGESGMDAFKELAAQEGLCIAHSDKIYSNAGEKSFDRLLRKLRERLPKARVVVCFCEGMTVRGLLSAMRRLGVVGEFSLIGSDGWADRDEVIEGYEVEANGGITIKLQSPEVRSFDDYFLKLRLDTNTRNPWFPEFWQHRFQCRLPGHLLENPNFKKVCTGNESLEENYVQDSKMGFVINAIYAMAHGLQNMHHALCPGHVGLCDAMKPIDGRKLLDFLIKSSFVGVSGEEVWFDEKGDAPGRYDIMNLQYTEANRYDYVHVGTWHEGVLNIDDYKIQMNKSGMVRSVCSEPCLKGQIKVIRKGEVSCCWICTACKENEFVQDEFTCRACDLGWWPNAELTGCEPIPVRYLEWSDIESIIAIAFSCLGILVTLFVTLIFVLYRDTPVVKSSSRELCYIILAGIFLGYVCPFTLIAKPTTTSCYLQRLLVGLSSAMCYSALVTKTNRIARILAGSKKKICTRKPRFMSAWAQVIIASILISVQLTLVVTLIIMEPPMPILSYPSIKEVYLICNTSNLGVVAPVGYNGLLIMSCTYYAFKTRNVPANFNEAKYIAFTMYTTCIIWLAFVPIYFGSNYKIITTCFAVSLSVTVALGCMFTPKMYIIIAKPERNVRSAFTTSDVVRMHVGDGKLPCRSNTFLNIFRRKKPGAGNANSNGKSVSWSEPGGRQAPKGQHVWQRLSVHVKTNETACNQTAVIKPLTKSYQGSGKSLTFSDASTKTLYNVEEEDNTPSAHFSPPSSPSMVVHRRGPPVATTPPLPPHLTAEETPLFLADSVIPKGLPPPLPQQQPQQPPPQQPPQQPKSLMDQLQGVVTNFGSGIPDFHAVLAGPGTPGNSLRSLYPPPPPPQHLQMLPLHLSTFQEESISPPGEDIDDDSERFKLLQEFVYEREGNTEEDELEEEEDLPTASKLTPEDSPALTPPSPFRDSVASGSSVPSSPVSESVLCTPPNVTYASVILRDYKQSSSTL
- experimentSummary: Effective concentration for agonistic activity towards metabotropic glutamate receptor 1 of rat expressed in CHO cells
pEC50: −log10 of the molar value.
measurementType: pEC50

Exercise: Name the recorded pEC50 of the compound listed here: "N[C@](CC1c2ccccc2Oc2ccccc21)(C(=O)O)[C@H]1C[C@@H]1C(=O)O"
Key: < 4.00

Exercise: Answer with the recorded pEC50 for the compound listed here: "N[C@]1(C(=O)O)[C@H]2[C@@H](C[C@H]1OCc1ccc(Cl)c(Cl)c1)[C@]2(F)C(=O)O"
Key: < 4.00

* * *

- experimentSummary: Maximum time required to achieve peak plasma concentration upon oral dose of 10 mg/kg to rats
- Format: ADME, organism-based
- Design: dose 10 mg/kg, route oral
- conditionDescription: rat
Reported Tmax values for the following molecules.
Report the value in h with no unit label.

N[C@]1(C(=O)O)[C@H]2[C@@H](C[C@H]1OCc1ccc3ccccc3c1)[C@]2(F)C(=O)O; 2.7
N[C@]1(C(=O)O)[C@H]2[C@@H](C[C@H]1OCc1ccc(Cl)cc1)[C@]2(F)C(=O)O; 2.3
N[C@]1(C(=O)O)[C@H]2[C@@H](C[C@H]1OC(c1ccccc1)c1ccccc1)[C@]2(F)C(=O)O; 1.8
N[C@]1(C(=O)O)[C@H]2[C@@H](C[C@H]1OCc1ccc(Cl)c(Cl)c1)[C@]2(F)C(=O)O; 2.7

We next turn to a different molecule, shown below.
Exercise: Entry "N[C@]1(C(=O)O)[C@H]2[C@@H](C[C@H]1OCc1ccc(F)c(F)c1)[C@]2(F)C(=O)O" needs its Tmax filled in; supply it.
Key: 1.7

* * *

- experimentSummary: Concentration of compound in plasma of rat after 3h of oral dose 10 mg/kg
- Format: ADME, organism-based
- Parameters: dose 10 mg/kg, route oral
log10 concentration at 3 h: recorded values
On a log10 scale: recorded concentration at 3 h, unit ng/mL.

N[C@]1(C(=O)O)[C@H]2[C@@H](C[C@H]1OCc1ccc(Cl)cc1)[C@]2(F)C(=O)O; 2.35
N[C@]1(C(=O)O)[C@H]2[C@@H](C[C@H]1OCc1ccc(Cl)c(Cl)c1)[C@]2(F)C(=O)O; 2.63
N[C@]1(C(=O)O)[C@H]2[C@@H](C[C@H]1OCc1ccc3ccccc3c1)[C@]2(F)C(=O)O; 2.40
N[C@]1(C(=O)O)[C@H]2[C@@H](C[C@H]1OCc1ccc(F)c(F)c1)[C@]2(F)C(=O)O; 2.25

Exercise: In one line, give reported log10 concentration at 3 h of the entry "N[C@]1(C(=O)O)[C@H]2[C@@H](C[C@H]1OC(c1ccccc1)c1ccccc1)[C@]2(F)C(=O)O" .
Key: 1.58

* * *

In this section we review reported concentration at 1 h values for a set of compounds.
- experimentSummary: Concentration of compound in brain of rat after 1 hr of oral dose 10 mg/kg
- Format: ADME, organism-based
- Design: dose 10 mg/kg, route oral
Just the number please, in ng/mL, no unit attached.

Some solved cases for reference:
N[C@]1(C(=O)O)[C@H]2[C@@H](C[C@H]1OCc1ccc3ccccc3c1)[C@]2(F)C(=O)O; 1.42
N[C@]1(C(=O)O)[C@H]2[C@@H](C[C@H]1OCc1ccc(Cl)c(Cl)c1)[C@]2(F)C(=O)O; 3.88
N[C@]1(C(=O)O)[C@H]2[C@@H](C[C@H]1OCc1ccc(F)c(F)c1)[C@]2(F)C(=O)O; 3.06

// next entry
Exercise: Give me measured concentration at 1 h, please, for this compound: "N[C@]1(C(=O)O)[C@H]2[C@@H](C[C@H]1OCc1ccc(Cl)cc1)[C@]2(F)C(=O)O"
Key: 2.51

* * *

- experimentSummary: Concentration of compound in brain of rat after 6 hr of oral dose 10 mg/kg
- Format: ADME, organism-based
- Design: dose 10 mg/kg, route oral
Label rule, in plain words: concentration at 6 h of 3 ng/mL and up is rule met, under 3 ng/mL is rule not met.

For orientation, consider the following solved cases.
N[C@]1(C(=O)O)[C@H]2[C@@H](C[C@H]1OCc1ccc(Cl)c(Cl)c1)[C@]2(F)C(=O)O; rule met
N[C@]1(C(=O)O)[C@H]2[C@@H](C[C@H]1OCc1ccc3ccccc3c1)[C@]2(F)C(=O)O; rule met
N[C@]1(C(=O)O)[C@H]2[C@@H](C[C@H]1OCc1ccc(F)c(F)c1)[C@]2(F)C(=O)O; rule not met

Exercise: Answer whether concentration at 6 h of "N[C@]1(C(=O)O)[C@H]2[C@@H](C[C@H]1OCc1ccc(Cl)cc1)[C@]2(F)C(=O)O" is greater than or equal to 3 ng/mL.
Key: rule met

Exercise: Does the reported concentration at 6 h for "N[C@]1(C(=O)O)[C@H]2[C@@H](C[C@H]1OC(c1ccccc1)c1ccccc1)[C@]2(F)C(=O)O" fall at or above the 3 ng/mL mark?
Key: rule not met

* * *

Reported half-life by item:
- experimentSummary: Half-life in rat upon oral dose of 3 mg/kg
- Assay type: ADME, organism-based
- Design: dose 3 mg/kg, route oral
- conditionDescription: in vivo
// note: answer is a bare numeric in h

Worked cases, half-life given:
N[C@]1(C(=O)O)[C@H]2[C@@H](C[C@H]1OCc1ccc(F)c(F)c1)[C@]2(F)C(=O)O; 3.47
N[C@]1(C(=O)O)[C@H]2[C@@H](C[C@H]1OCc1ccc(Cl)c(Cl)c1)[C@]2(F)C(=O)O; 2.15
N[C@]1(C(=O)O)[C@H]2[C@@H](C[C@H]1OC(c1ccccc1)c1ccccc1)[C@]2(F)C(=O)O; 1.62
N[C@]1(C(=O)O)[C@H]2[C@@H](C[C@H]1OCc1ccc3ccccc3c1)[C@]2(F)C(=O)O; 3.66

Exercise: Tell me measured half-life for "N[C@]1(C(=O)O)[C@H]2[C@@H](C[C@H]1OCc1ccc(Cl)cc1)[C@]2(F)C(=O)O" please.
Key: 1.67

* * *

- experimentSummary: Half-life in rat plasma upon oral dose of 10 mg/kg
- Type: ADME, organism-based
- Parameters: dose 10 mg/kg, route oral
measurementType: half-life (h)
Use h as the unit, but write only the number.

Recorded half-life, per entry:
N[C@]1(C(=O)O)[C@H]2[C@@H](C[C@H]1OCc1ccc(F)c(F)c1)[C@]2(F)C(=O)O; 2.8
N[C@]1(C(=O)O)[C@H]2[C@@H](C[C@H]1OC(c1ccccc1)c1ccccc1)[C@]2(F)C(=O)O; 2.8
N[C@]1(C(=O)O)[C@H]2[C@@H](C[C@H]1OCc1ccc(Cl)cc1)[C@]2(F)C(=O)O; 2.5
N[C@]1(C(=O)O)[C@H]2[C@@H](C[C@H]1OCc1ccc(Cl)c(Cl)c1)[C@]2(F)C(=O)O; 2.3

Exercise: Look up and state reported half-life for "N[C@]1(C(=O)O)[C@H]2[C@@H](C[C@H]1OCc1ccc3ccccc3c1)[C@]2(F)C(=O)O"
Key: 2.9
